method.summary: in vivo
stated.conditions: male, beagle, dog, in vivo, po, 0.25 g/kg
readout.type: AUC(0-t) (ng·h/mL)

OCc1ccc(O[C@@H]2O[C@H](CO)[C@@H](O)[C@H](O)[C@H]2O)cc1 = 8830

1. O=C(O)CC(O)(CC(=O)OCc1ccc(OC2OC(CO)C(O)C(O)C2O)cc1)C(=O)OCc1ccc(OC2OC(CO)C(O)C(O)C2O)cc1 (stereo not shown)
2. O=C(CC(O)(CC(=O)OCc1ccc(OC2OC(CO)C(O)C(O)C2O)cc1)C(=O)OCc1ccc(OC2OC(CO)C(O)C(O)C2O)cc1)OCc1ccc(OC2OC(CO)C(O)C(O)C2O)cc1 (stereo not shown)
3. O=C(CC(O)(CC(=O)OCc1ccc(O[C@@H]2O[C@H](CO)[C@@H](O)[C@H](O)[C@H]2O)cc1)C(=O)O)OCc1ccc(O[C@@H]2O[C@H](CO)[C@@H](O)[C@H](O)[C@H]2O)cc1
Task item: Sort the 3 compounds by AUC(0-t); largest first, smallest last. Thanks in advance for listing the labels in the requested order.
Reply: 1, 2, 3
(1: 2700 ng·h/mL, 2: 1500 ng·h/mL, 3: 567 ng·h/mL)
